target: PI3K (p110β/p85α) (Homo sapiens, UniProt P42338); experiment: PI3Kβ ADP-Glo kinase assay; format: biochemical; details: read-out: PI3Kβ Enzyme activity IC50
Sequence (P42338 whole entry): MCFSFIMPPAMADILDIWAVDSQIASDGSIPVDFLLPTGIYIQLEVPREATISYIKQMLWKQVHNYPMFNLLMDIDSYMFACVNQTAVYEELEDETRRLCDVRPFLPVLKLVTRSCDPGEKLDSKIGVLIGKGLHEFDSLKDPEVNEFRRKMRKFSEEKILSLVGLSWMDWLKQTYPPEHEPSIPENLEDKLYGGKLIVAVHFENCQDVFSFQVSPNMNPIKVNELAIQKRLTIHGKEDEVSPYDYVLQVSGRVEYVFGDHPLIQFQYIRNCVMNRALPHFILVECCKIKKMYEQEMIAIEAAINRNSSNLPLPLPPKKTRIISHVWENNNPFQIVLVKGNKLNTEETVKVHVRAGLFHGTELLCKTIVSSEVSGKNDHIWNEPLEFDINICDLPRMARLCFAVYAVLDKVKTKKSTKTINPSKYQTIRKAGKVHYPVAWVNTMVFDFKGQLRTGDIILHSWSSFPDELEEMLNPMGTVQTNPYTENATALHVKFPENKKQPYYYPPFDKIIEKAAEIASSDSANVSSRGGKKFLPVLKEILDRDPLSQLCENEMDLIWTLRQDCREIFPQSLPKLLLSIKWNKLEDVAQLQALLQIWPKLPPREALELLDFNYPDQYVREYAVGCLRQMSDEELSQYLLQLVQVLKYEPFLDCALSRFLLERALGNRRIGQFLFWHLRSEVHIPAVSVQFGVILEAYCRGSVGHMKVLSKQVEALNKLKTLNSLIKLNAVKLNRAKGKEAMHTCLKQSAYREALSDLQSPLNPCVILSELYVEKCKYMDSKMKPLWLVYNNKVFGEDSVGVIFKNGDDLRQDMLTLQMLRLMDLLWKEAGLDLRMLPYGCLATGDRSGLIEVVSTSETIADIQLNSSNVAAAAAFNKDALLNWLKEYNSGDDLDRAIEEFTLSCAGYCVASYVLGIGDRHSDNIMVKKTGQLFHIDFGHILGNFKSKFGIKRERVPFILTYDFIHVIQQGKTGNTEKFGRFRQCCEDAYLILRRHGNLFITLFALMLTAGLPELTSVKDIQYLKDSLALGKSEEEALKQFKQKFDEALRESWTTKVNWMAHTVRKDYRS
Sequence (P27986 whole entry partner): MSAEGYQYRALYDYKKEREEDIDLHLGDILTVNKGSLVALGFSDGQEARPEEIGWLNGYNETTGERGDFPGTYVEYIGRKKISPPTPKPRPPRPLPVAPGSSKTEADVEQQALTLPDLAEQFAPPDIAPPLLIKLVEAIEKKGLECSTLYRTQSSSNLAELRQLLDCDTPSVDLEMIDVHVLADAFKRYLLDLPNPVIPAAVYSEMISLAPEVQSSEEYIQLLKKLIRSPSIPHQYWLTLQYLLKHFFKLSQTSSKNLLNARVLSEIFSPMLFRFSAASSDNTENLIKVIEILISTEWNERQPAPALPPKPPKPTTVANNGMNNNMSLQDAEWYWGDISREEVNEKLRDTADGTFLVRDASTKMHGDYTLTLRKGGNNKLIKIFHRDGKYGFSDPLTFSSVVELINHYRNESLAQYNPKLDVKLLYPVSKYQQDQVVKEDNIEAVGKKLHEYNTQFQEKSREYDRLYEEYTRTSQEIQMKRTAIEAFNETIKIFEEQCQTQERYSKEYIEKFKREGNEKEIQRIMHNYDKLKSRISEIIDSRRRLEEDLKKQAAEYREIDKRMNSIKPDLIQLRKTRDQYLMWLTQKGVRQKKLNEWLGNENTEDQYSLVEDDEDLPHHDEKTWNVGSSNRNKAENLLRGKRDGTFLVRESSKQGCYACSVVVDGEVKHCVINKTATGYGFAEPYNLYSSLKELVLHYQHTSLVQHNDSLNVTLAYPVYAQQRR
Assignment: determine reported IC50 for the given compounds.
Numbers only here, please. The scale is nM.

Form: compound = CCOc1c(C(C)c2nc(Cl)c3c(N)nccn23)cc(Cl)c(C)c1-c1ccc(C)nc1 (centres unmarked) ; IC50 = 350

Form: compound = CC(c1cc(Cl)c(C#N)c(=O)n1-c1ccccc1)n1cc(Br)c2c(N)ncnc21 (centres unmarked) ; IC50 = 1700

Form: compound = CCOc1c(C(C)c2nc(-c3cccc(O)c3)c3c(N)nccn23)cc(Cl)c(C)c1-c1ccc(C(F)(F)F)nc1 (centres unmarked) ; IC50 = 2700

Form: compound = Cc1nc([C@@H](C)c2cc(Cl)c(F)c(-c3ccc(C(=O)N4CCC(F)(F)CC4)nc3)c2OC(C)C)n2ccnc(N)c12 ; IC50 = 2700

Form: compound = CCOc1c(C(C)c2nc(Cl)c3c(N)nccn23)cc(Cl)c(C)c1-c1ccc(=O)[nH]c1 (centres unmarked) ; IC50 = 320

Form: compound = CCOc1c(C(C)c2nc(Br)c3c(N)nccn23)cc(Cl)c(C)c1-c1ccc(OCCOC)nc1 (centres unmarked) ; IC50 = 530

Form: compound = CC(C)Oc1c([C@H](C)c2nc(Cl)c3c(N)nccn23)cc(Cl)c(F)c1-c1ccc(C(N)=O)nc1 [Compound 17B] ; IC50 = 670

Form: compound = CCOc1c(C(C)c2nc(Cl)c3c(N)nccn23)cc(Cl)c(C)c1-c1ccc(OC)nc1 (centres unmarked) ; IC50 = 820

Form: compound = COc1ccc(-c2c(C)c(Cl)cc(C(C)c3nc(Br)c4c(N)nccn34)c2OC)cn1 (centres unmarked) ; IC50 = 930

Form: compound = CC(C)Oc1c(C(C)c2nc(Cl)c3c(N)nccn23)cc(Cl)c(F)c1-c1ccc(C(=O)O)nc1 (centres unmarked) ; IC50 = 1100

Form: compound = CCOc1c(C(C)c2nc(Cl)c3c(N)nccn23)cc(Cl)c(C)c1-c1ccc(C(F)(F)F)nc1 (centres unmarked) ; IC50 = 2600

Form: compound = CCOc1c([C@H](C)c2nc(Cl)c3c(N)nccn23)cc(Cl)c(C)c1-c1ccc(C(=O)O)nc1 ; IC50 = 870

Form: compound = CCOc1c(C(C)c2nc(Cl)c3c(N)nccn23)cc(F)c(Cl)c1-c1ccc(C(F)(F)F)nc1 (centres unmarked) ; IC50 = 1800

Form: compound = Cc1nc(C(C)c2cc(Cl)c(F)c(-c3ccc(C#N)nc3)c2OC(C)C)n2ccnc(N)c12 (single isomer, unassigned) [Compound 59A] ; IC50 = 1400

Form: compound = CCOc1c(C(C)c2nc(C)c3c(N)nccn23)cc(Cl)c(C)c1-c1ccc(C(F)(F)F)nc1 (centres unmarked) ; IC50 = 3500

Form: compound = CCOc1c([C@H](C)c2nc(Cl)c3c(N)nccn23)cc(Cl)c(F)c1-c1ccc(C(F)(F)F)nc1 [Compound 41A] ; IC50 = 1200

Form: compound = CCOc1c(C(C)c2nc(Cl)c3c(N)nccn23)cc(Cl)c(Cl)c1-c1ccc(C(F)(F)F)nc1 (centres unmarked) ; IC50 = 580

Form: compound = Cc1nc([C@@H](C)c2cc(Cl)c(F)c(-c3ccc(C(=O)NCCO)nc3)c2OC(C)C)n2ccnc(N)c12 ; IC50 = 3600

Form: compound = Cc1c(Cl)cc([C@H](C)c2nc(Br)c3c(N)nccn23)c(OC(C)C)c1-c1ccc(C(F)(F)F)nc1 [Compound 38A] ; IC50 = 28000

Form: compound = CCOc1c(C(C)c2nc(Cl)c3c(N)nccn23)cc(Cl)c(C)c1-c1ccc(OC)cc1 (centres unmarked) ; IC50 = 930

Form: compound = CC(C)Oc1c(C(C)c2nc(Cl)c3c(N)nccn23)cc(Cl)c(F)c1C1CNC(=O)C1 (single isomer, unassigned) [Compound 48A] ; IC50 = 440

Form: compound = Cc1nc([C@@H](C)c2cc(Cl)c(F)c(-c3ccc(C(=O)N4CCC[C@H]4C(=O)O)nc3)c2OC(C)C)n2ccnc(N)c12 ; IC50 = 460

Form: compound = COc1cc(C(C)n2cc(Br)c3c(N)ncnc32)n(-c2ccccc2)c(=O)c1C#N (centres unmarked) ; IC50 = 1240

Form: compound = Cc1nc([C@@H](C)c2cc(Cl)c(F)c(-c3ccc(C(=O)NC4(C(=O)O)CC4)nc3)c2OC(C)C)n2ccnc(N)c12 ; IC50 = 400

Form: compound = CCOc1c([C@H](C)c2nc(Cl)c3c(N)nccn23)cc(Cl)c(C)c1-c1ccc(C(=O)N(C)C)nc1 ; IC50 = 360

Form: compound = CCOc1c(C(C)c2nc(Cl)c3c(N)nccn23)cc(Cl)c(C)c1N1CCOCC1 (single isomer, unassigned) [Compound 51A] ; IC50 = 480

---

molecular target: PI3K (p110β/p85α) (Homo sapiens); experiment: PI3Kβ ADP-Glo kinase assay; format: biochemical; details: read-out: PI3Kβ Enzyme activity IC50
measured-quantity: pIC50
# pIC50 = -log10(concentration in molar units)

Form: molecule = Cc1nc([C@@H](C)c2cc(Cl)c(F)c(-c3ccc(C(N)=NO)nc3)c2OC(C)C)n2ccnc(N)c12 ; pIC50 = 5.38

Form: molecule = Cc1nc([C@@H](C)c2cc(Cl)c(F)c(-c3ccc(C(=O)N4CC(C(=O)O)C4)nc3)c2OC(C)C)n2ccnc(N)c12 ; pIC50 = 5.92

Form: molecule = CCOc1c(C(C)c2nc(Br)c3c(N)nccn23)cc(Cl)c(C)c1-c1ccc(C(F)(F)F)nc1 (stereo not drawn) ; pIC50 = 5.80

Form: molecule = CCOc1c(C(C)c2nc(Cl)c3c(N)nccn23)cc(Cl)c(C)c1C1CNC(=O)C1 (stereo not drawn) ; pIC50 = 6.33

Form: molecule = COc1c(C(C)c2nc(Br)c3c(N)nccn23)cc(Cl)c(C)c1-c1ccc(Cl)nc1 (stereo not drawn) ; pIC50 = 6.41

Form: molecule = CCOc1c(C(C)c2nc(Br)c3c(N)nccn23)cc(Cl)c(C)c1-c1ccc(Cl)nc1 (stereo not drawn) ; pIC50 = 6.48

Form: molecule = Cc1nc([C@@H](C)c2cc(Cl)c(F)c(-c3ccc(C(=O)NC(C)(C)C(=O)O)nc3)c2OC(C)C)n2ccnc(N)c12 ; pIC50 = 6.27

Form: molecule = Cc1nc([C@@H](C)c2cc(Cl)c(F)c(-c3ccc(C(=O)NC4(CO)CC4)nc3)c2OC(C)C)n2ccnc(N)c12 ; pIC50 = 5.47

Form: molecule = CCOc1c(C(C)c2nc(Br)c3c(N)nccn23)cc(Cl)c(C)c1-c1cncc(C(F)(F)F)c1 (stereo not drawn) ; pIC50 = 5.70

Form: molecule = CCOc1c(C(C)c2nc(Cl)c3c(N)nccn23)cc(Cl)c(C)c1N1CCOCC1 (stereo not drawn) [Compound 51] ; pIC50 = 5.57

Form: molecule = Cc1c(Cl)cc(C(C)c2nc(Br)c3c(N)nccn23)c(OC(C)C)c1-c1ccc(C(F)(F)F)nc1 (stereo not drawn) ; pIC50 = 4.52

Form: molecule = CCOc1c([C@H](C)c2nc(Cl)c3c(N)nccn23)cc(Cl)c(C)c1-c1ccc(C)nc1 ; pIC50 = 6.24

Form: molecule = CCOc1c(C(C)c2nc(Cl)c3c(N)nccn23)cc(Cl)c(F)c1-c1ccc(C(F)(F)F)nc1 (stereo not drawn) ; pIC50 = 5.51

Form: molecule = CC(C)Oc1c([C@H](C)c2nc(Cl)c3c(N)nccn23)cc(Cl)c(F)c1-c1ccc(C(=O)O)nc1 [Compound 18A] ; pIC50 = 6.72

Form: molecule = CC(C)Oc1c(C(C)c2nc(Cl)c3c(N)nccn23)cc(Cl)c(Cl)c1-c1ccc(C(F)(F)F)nc1 (stereo not drawn) ; pIC50 = 5.72

Form: molecule = Cc1nc([C@@H](C)c2cc(Cl)c(F)c(-c3ccc(C(=O)N4CCC(O)CC4)nc3)c2OC(C)C)n2ccnc(N)c12 ; pIC50 = 5.21

Form: molecule = Cc1nc([C@@H](C)c2cc(Cl)c(F)c(-c3ccc(C(=O)N4CC(O)C4)nc3)c2OC(C)C)n2ccnc(N)c12 ; pIC50 = 5.64

Form: molecule = CCOc1c([C@H](C)c2nc(Cl)c3c(N)nccn23)cc(Cl)c(C)c1-c1ccc(Cl)nc1 [Compound 27A] ; pIC50 = 6.40

Form: molecule = CCOc1c(C(C)c2nc(Cl)c3c(N)nccn23)cc(Cl)c(C)c1-c1ccc(Cl)nc1 (stereo not drawn) ; pIC50 = 5.74

Form: molecule = Cc1nc([C@@H](C)c2cc(Cl)c(F)c(-c3ccc(C(F)(F)F)nc3)c2OC(C)C)n2ccnc(N)c12 ; pIC50 = 4.77
